tested on: 786-0 renal; assay: NCI tumour cell line growth inhibition, 48 h
Exercise: state measured GI50 for each of the compounds provided.

Check out these entries, answers already filled in.
Exercise: Quick one: GI50 for N#C[S-].[Au+].c1ccc(CN2[CH-]N(Cc3ccccc3)C(c3ccccc3)=C2c2ccccc2)cc1 ?
Key: 0.444 µM

Exercise: What about this compound? Cc1nn(-c2nc3ccccc3[nH]2)c2c1C(c1ccc3c(c1)OCO3)CC(=O)N2 (stereo not drawn)
Key: 3.65 µM

Exercise: What about this compound? CCOC(=O)C#Cc1c(CC(=O)OCC)nnn1[C@H]1O[C@@H](CO)[C@@H]2OC(C)(C)O[C@@H]21
Key: 6.58 µM

Exercise: What about this compound? Clc1ccc2c(c1)-c1ccccc1C1=NCCN12
Key: 1.66 µM

Exercise: What about this compound? C=CC(=O)Nc1cccc(C)c1Nc1ncc2cc(-c3c(Cl)c(OC)cc(OC)c3Cl)ccc2n1
Key: 2.33 µM

Exercise: What about this compound? COC(=O)c1cc2oc(/C=C3\SC(=S)N(NC(C)=O)C3=O)cc2n1Cc1ccccc1
Key: 8.2 µM

Would you be so kind as to report GI50 for each listed record?
1. O=Cc1ccc(O)c2ncccc12
2. Cc1ccc(S(=O)(=O)Nc2nc3ccccc3nc2Nc2ccc3nsnc3c2)cc1

Key:
["13.4 µM", "3.65 µM"]

----------
tested on: MALME-3M melanoma; assay: NCI tumour cell line growth inhibition, 48 h
measurement-name: GI50

Exercise: Quick one: GI50 for CC(C)C[C@@H]1NC(=O)[C@@H]2CCCN2C(=O)[C@@H]2CCCN2C(=O)[C@H](CC(C)C)NC(=O)[C@H](CO)NC(=O)[C@H](CCCCN)NC(=O)[C@H]([C@H](C)O)NC(=O)[C@@H]2CCCC[C@@H](NC1=O)C(=O)N[C@@H](Cc1ccccc1)C(=O)N1CCC[C@H]1C(=O)N[C@@H](CC(=O)O)C(=O)NCC(=O)N[C@@H](CCCN=C(N)N)C(=O)N2 ?
Key: > 50000 nM

Exercise: What about this compound? Oc1ccc(N=Nc2ccc(N=Nc3ccccc3)cc2)cc1
Key: 11600 nM

Would you be so kind as to report GI50 for each listed record?
1. Clc1ccc2c(c1)-c1ccccc1C1=NCCN12
2. CCOC(=O)C#Cc1c(CC(=O)OCC)nnn1[C@H]1O[C@@H](CO)[C@@H]2OC(C)(C)O[C@@H]21
3. N#C[S-].[Au+].c1ccc(CN2[CH-]N(Cc3ccccc3)C(c3ccccc3)=C2c2ccccc2)cc1

Key:
1770 nM
2000 nM
284 nM

----------
system: HOP-92 NSCLC; experiment: NCI tumour cell line growth inhibition, 48 h
measurement-name: TGI (µM)
Answers are plain numbers, in µM.

Exercise: Quick one: TGI for O=C1CCc2cc3c(cc21)CC1(Cc2cc4c(cc2C1)CCCC4)C3 ?
Key: 11.4

More entries:
Exercise: Quick one: TGI for O=C(CCCCCCC(=O)Nc1ccc2c(c1)/C(=C/c1ccc[nH]1)C(=O)N2)NO ?
Key: 2.76

----------
system: MALME-3M melanoma; test: NCI tumour cell line growth inhibition, 48 h
# cutoff 50 µM applies to TGI; >= gives True, < gives False

Solved entries:
Exercise: In plain terms: is recorded TGI at least 50 µM for C/C(=N/NC(=S)NCCc1ccccn1)c1cnccn1 ?
Key: True

Exercise: What about this molecule? [C-]#[N+]C(C)(C)C[C@H]1CC(C)C2CCC(C)C3([N+]#[C-])CCC(=C)C1[C@H]23 (stereo not given in full)
Key: False

Exercise: What about this molecule? Cc1ccc(S(=O)(=O)c2c3[nH]c4ccccc4nc3n3c2nc2ccccc23)cc1
Key: True

Exercise: What about this molecule? Clc1ccc(-c2nnc(C34CC5CC(CC(C5)C3)C4)o2)cc1
Key: True

Exercise: What about this molecule? CC1=NN(C(=O)c2ccc(Cl)cc2)C(=O)/C1=C/c1ccc(O)cc1
Key: True

Query molecule follows.
Exercise: In plain terms: is recorded TGI at least 50 µM for ClCc1ccc2ccc3ccc(CCl)nc3c2n1 ?
Key: False
